Source: patent US7396645B1

- Tested on: Cholestasis Signature
- PROTOCOL CONDITIONS: rat liver expression data vs Cholestasis Signature; maximum score of training treatments normalised to 100; dose and time not given
Marks after values point to notes of the source that are not given here.
MEASURED ATTRIBUTE: Sequence Projection Score (SPS)

| COMPOUND | TARGET DESC | REPORTED |
| --- | --- | --- |
| O=NN(CCCl)C(=O)NCCCl | Cholestasis Signature | 69* |
| c1ccc2c(c1)Nc1ccccc1S2 | Cholestasis Signature | 49* |
| S=C=Nc1cccc2ccccc12 [1-NAPHTHYL ISOTHIOCYANATE, 1-naphthyl isothiocyanate] | Cholestasis Signature | 90** |
| CCCCCCCCc1ccc(O)cc1 | Cholestasis Signature | 22 |
| Clc1ccc(COC(Cn2ccnc2)c2ccc(Cl)cc2Cl)c(Cl)c1 (stereo not drawn) [MICONAZOLE, nitrate] | Cholestasis Signature | 100** |
| Nc1ccc(Cc2ccc(N)cc2)cc1 | Cholestasis Signature | 77** |
| CN(C)C=O [N,N-DIMETHYLFORMAMIDE] | Cholestasis Signature | 27* |
| ClC(Cl)(Cl)Cl [CARBON TETRACHLORIDE] | Cholestasis Signature | 50* |
| C[C@]12CCC(=O)C=C1CC[C@@H]1[C@@H]2CC[C@@]2(C)[C@H]1CC[C@]2(C)O | Cholestasis Signature | 36* |
